molecular target: Adenosine receptor A3 (Homo sapiens, UniProt P0DMS8); test: Antagonist activity at human recombinant adenosine A3 receptor transfected in CHO cells assessed as reversal of NECA-induced inhibition of forskolin-induced adenylyl cyclase activity
Sequence (P0DMS8 whole entry): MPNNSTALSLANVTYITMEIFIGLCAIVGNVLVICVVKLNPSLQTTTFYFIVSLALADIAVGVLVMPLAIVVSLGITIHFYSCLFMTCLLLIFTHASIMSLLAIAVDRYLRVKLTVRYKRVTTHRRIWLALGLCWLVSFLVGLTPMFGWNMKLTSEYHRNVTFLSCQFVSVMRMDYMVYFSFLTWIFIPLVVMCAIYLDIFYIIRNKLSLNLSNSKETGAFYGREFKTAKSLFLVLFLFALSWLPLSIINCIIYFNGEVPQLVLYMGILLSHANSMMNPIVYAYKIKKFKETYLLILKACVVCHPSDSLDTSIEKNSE
observation-type: EC50 (nM)

# molecule, result-units, EC50
rows = [
    ("CCn1nnc([C@H]2O[C@@H](n3cnc4c(NC5CCCO5)nc(Cl)nc43)[C@H](O)[C@@H]2O)n1 (stereo not given in full)", "nM", 104),
    ("CCn1nnc([C@H]2O[C@@H](n3cnc4c(Nc5ccc(Cl)cc5F)ncnc43)[C@H](O)[C@@H]2O)n1", "nM", 33.9),
]

I: CCn1nnc([C@H]2O[C@@H](n3cnc4c(Nc5ccc(Cl)cc5F)nc(Cl)nc43)[C@H](O)[C@@H]2O)n1
II: CCn1nnc([C@H]2O[C@@H](n3cnc4c(N[C@H]5C[C@@H]6CC[C@@H]5C6)nc(Cl)nc43)[C@H](O)[C@@H]2O)n1 (racemic)
III: CCn1nnc([C@H]2O[C@@H](n3cnc4c(N[C@H]5C[C@@H]6CC[C@@H]5C6)ncnc43)[C@H](O)[C@@H]2O)n1 (racemic)
query: Arrange these 3 molecules in increasing order of EC50. Ranked list of labels, please, in the requested order.
result: I, III, II

====

target: Adenosine receptor A3 (Homo sapiens); assay: Displacement of [3H]-HEMADO from human recombinant adenosine A3 receptor transfected in CHO cells
observation-type: Ki (nM)

# cpd-smiles, experimental-system, result-units, obs-value
measured = [
    ("CCn1nnc([C@H]2O[C@@H](n3cnc4c(Nc5ccc(Cl)cc5F)nc(Cl)nc43)[C@H](O)[C@@H]2O)n1", "Adenosine receptor A3 (Homo sapiens)", "nM", 4.71),
    ("CCn1nnc([C@H]2O[C@@H](n3cnc4c(NC5CC5)nc(Cl)nc43)[C@H](O)[C@@H]2O)n1", "Adenosine receptor A3 (Homo sapiens)", "nM", 3.9),
]

I: CCn1nnc([C@H]2O[C@@H](n3cnc4c(NC)ncnc43)[C@H](O)[C@@H]2O)n1
II: CCn1nnc([C@H]2O[C@@H](n3cnc4c(NC5CC5)ncnc43)[C@H](O)[C@@H]2O)n1
query: For I and II , which recorded Ki is lower? Refer to your chosen item by its label in the answer.
result: I
(I: 0.478 nM, II: 7.97 nM)

====

target: Adenosine receptor A2b (Homo sapiens, UniProt P29275); assay: Agonist activity at human recombinant adenosine A2B receptor transfected in CHO cells assessed as induction of adenylyl cyclase activity
Sequence (P29275 whole entry): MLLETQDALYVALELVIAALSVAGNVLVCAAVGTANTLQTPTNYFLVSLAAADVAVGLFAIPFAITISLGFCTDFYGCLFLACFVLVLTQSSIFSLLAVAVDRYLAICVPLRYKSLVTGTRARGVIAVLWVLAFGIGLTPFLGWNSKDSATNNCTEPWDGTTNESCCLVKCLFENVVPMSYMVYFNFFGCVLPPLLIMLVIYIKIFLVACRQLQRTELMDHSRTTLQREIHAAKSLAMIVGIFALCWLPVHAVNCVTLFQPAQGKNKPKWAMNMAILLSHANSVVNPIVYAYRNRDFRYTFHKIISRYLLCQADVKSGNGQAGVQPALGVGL
observation-type: EC50 (nM)

# compound, experimental-system, EC50 (nM)
records = [
    ("CCn1nnc([C@H]2O[C@@H](n3cnc4c(NC)ncnc43)[C@H](O)[C@@H]2O)n1", "Adenosine receptor A2b (Homo sapiens, UniProt P29275)", 1480),
    ("CCn1nnc([C@H]2O[C@@H](n3cnc4c(N)ncnc43)[C@H](O)[C@@H]2O)n1", "Adenosine receptor A2b (Homo sapiens, UniProt P29275)", 347),
    ("CCn1nnc([C@H]2O[C@@H](n3cnc4c(NC5CCCO5)ncnc43)[C@H](O)[C@@H]2O)n1 (stereo partly drawn)", "Adenosine receptor A2b (Homo sapiens, UniProt P29275)", 1340),
    ("CCn1nnc([C@H]2O[C@@H](n3cnc4c(N[C@H]5C[C@@H]6CC[C@@H]5C6)ncnc43)[C@H](O)[C@@H]2O)n1 (racemic)", "Adenosine receptor A2b (Homo sapiens, UniProt P29275)", 1010),
    ("CCn1nnc([C@H]2O[C@@H](n3cnc4c(N)nc(Cl)nc43)[C@H](O)[C@@H]2O)n1", "Adenosine receptor A2b (Homo sapiens, UniProt P29275)", 542),
    ("CCn1nnc([C@H]2O[C@@H](n3cnc4c(NCc5ccccc5I)nc(Cl)nc43)[C@H](O)[C@@H]2O)n1", "Adenosine receptor A2b (Homo sapiens, UniProt P29275)", 834),
]

a: CCn1nnc([C@H]2O[C@@H](n3cnc4c(NC5CC5)ncnc43)[C@H](O)[C@@H]2O)n1
b: CCn1nnc([C@H]2O[C@@H](n3cnc4c(NC)nc(Cl)nc43)[C@H](O)[C@@H]2O)n1
query: For a and b , which recorded EC50 is lower? Refer to your chosen item by its label in the answer.
result: a
(a: 675 nM, b: 3510 nM)

====

target: Adenosine receptor A3 (Homo sapiens); assay: Displacement of [3H]-HEMADO from human recombinant adenosine A3 receptor transfected in CHO cells; assay type: cell-based
pKi: −log10 of the molar value.
observation-type: pKi

// known answers, use as guide
# cpd-smiles, pKi
measured = [
    ("CCn1nnc([C@H]2O[C@@H](n3cnc4c(NCc5ccccc5I)nc(Cl)nc43)[C@H](O)[C@@H]2O)n1", 9.23),
    ("CCn1nnc([C@H]2O[C@@H](n3cnc4c(N)nc(Cl)nc43)[C@H](O)[C@@H]2O)n1", 8.74),
]

1: CCn1nnc([C@H]2O[C@@H](n3cnc4c(NC)nc(Cl)nc43)[C@H](O)[C@@H]2O)n1
2: CCn1nnc([C@H]2O[C@@H](n3cnc4c(N)ncnc43)[C@H](O)[C@@H]2O)n1
query: Select the item with the higher value of pKi from the options 1 and 2 listed. Refer to your chosen item by its label in the answer.
result: 1
(1: 9.37, 2: 8.41)

====

biological target: Adenosine receptor A1 (Homo sapiens, UniProt P30542); experiment: Agonist activity at human recombinant adenosine A1 receptor transfected in CHO cells assessed as inhibition of forskolin-induced adenylyl cyclase activity
Sequence (P30542 whole entry): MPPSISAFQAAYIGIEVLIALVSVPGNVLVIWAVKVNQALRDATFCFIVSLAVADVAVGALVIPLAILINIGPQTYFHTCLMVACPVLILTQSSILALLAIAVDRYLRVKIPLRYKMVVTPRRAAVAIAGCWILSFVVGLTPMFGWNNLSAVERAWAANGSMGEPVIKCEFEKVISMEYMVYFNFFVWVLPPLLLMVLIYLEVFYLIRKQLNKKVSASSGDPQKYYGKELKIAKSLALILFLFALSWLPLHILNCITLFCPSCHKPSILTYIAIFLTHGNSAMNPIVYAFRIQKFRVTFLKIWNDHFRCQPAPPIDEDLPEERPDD
observation-type: EC50 (nM)

// known answers, use as guide
# molecule, experimental-system, obs-value
records = [
    ("CCn1nnc([C@H]2O[C@@H](n3cnc4c(N)ncnc43)[C@H](O)[C@@H]2O)n1", "Adenosine receptor A1 (Homo sapiens, UniProt P30542)", 26.3),
    ("CCn1nnc([C@H]2O[C@@H](n3cnc4c(NCc5ccccc5I)nc(Cl)nc43)[C@H](O)[C@@H]2O)n1", "Adenosine receptor A1 (Homo sapiens, UniProt P30542)", 64.9),
    ("CCn1nnc([C@H]2O[C@@H](n3cnc4c(NC5CC5)ncnc43)[C@H](O)[C@@H]2O)n1", "Adenosine receptor A1 (Homo sapiens, UniProt P30542)", 8.61),
    ("CCn1nnc([C@H]2O[C@@H](n3cnc4c(Nc5ccc(Cl)cc5F)ncnc43)[C@H](O)[C@@H]2O)n1", "Adenosine receptor A1 (Homo sapiens, UniProt P30542)", 10.2),
]

I: CCn1nnc([C@H]2O[C@@H](n3cnc4c(NC)nc(Cl)nc43)[C@H](O)[C@@H]2O)n1
II: CCn1nnc([C@H]2O[C@@H](n3cnc4c(NC5CCCO5)nc(Cl)nc43)[C@H](O)[C@@H]2O)n1 (stereo partly drawn)
III: CCn1nnc([C@H]2O[C@@H](n3cnc4c(NC)ncnc43)[C@H](O)[C@@H]2O)n1
IV: CCn1nnc([C@H]2O[C@@H](n3cnc4c(NC5CC5)nc(Cl)nc43)[C@H](O)[C@@H]2O)n1
query: Arrange these 4 molecules in increasing order of EC50. Ranked list of labels, please, in the requested order.
result: IV, II, III, I
(IV: 3.62 nM, II: 7.42 nM, III: 97.2 nM, I: 250 nM)

====

molecular target: Adenosine receptor A2a (Homo sapiens, UniProt P29274); test: Displacement of [3H]-NECA from human recombinant adenosine A2A receptor transfected in CHO cells
Sequence (P29274 whole entry): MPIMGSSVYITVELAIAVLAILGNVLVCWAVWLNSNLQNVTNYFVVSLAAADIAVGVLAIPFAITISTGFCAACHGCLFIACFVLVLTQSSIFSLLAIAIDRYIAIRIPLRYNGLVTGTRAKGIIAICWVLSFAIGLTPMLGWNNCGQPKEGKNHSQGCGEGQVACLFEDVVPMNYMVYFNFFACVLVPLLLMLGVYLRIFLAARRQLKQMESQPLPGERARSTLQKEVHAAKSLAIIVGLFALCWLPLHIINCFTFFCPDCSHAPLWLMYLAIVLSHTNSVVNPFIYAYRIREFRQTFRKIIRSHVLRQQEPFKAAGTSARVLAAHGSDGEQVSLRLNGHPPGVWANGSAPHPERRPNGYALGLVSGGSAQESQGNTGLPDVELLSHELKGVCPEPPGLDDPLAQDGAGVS
pKi: −log10 of the molar value.
observation-type: pKi

// known answers, use as guide
# compound, pKi
rows = [
    ("CCn1nnc([C@H]2O[C@@H](n3cnc4c(N[C@H]5C[C@@H]6CC[C@@H]5C6)nc(Cl)nc43)[C@H](O)[C@@H]2O)n1 (racemic)", 6.79),
    ("CCn1nnc([C@H]2O[C@@H](n3cnc4c(N)nc(Cl)nc43)[C@H](O)[C@@H]2O)n1", 7.68),
]

1: CCn1nnc([C@H]2O[C@@H](n3cnc4c(Nc5ccc(Cl)cc5F)nc(Cl)nc43)[C@H](O)[C@@H]2O)n1
2: CCn1nnc([C@H]2O[C@@H](n3cnc4c(Nc5ccc(Cl)cc5F)ncnc43)[C@H](O)[C@@H]2O)n1
3: CCn1nnc([C@H]2O[C@@H](n3cnc4c(NC)ncnc43)[C@H](O)[C@@H]2O)n1
query: Rank entries according to their pKi, from the largest number down. Ranked list of labels, please, in the requested order.
result: 2, 1, 3

====

biological target: UniProt:P29274; assay: Agonist activity at human recombinant adenosine A2A receptor transfected in CHO cells assessed as induction of adenylyl cyclase activity; type: functional, cell-based
Quick reference for Efficacy among some molecules

// known answers, use as guide
# molecule, observation-type, obs-value
records = [
    ("CCn1nnc([C@H]2O[C@@H](n3cnc4c(N[C@H]5C[C@@H]6CC[C@@H]5C6)ncnc43)[C@H](O)[C@@H]2O)n1 (racemic)", "Efficacy", "> 90%"),
    ("CCn1nnc([C@H]2O[C@@H](n3cnc4c(NC)ncnc43)[C@H](O)[C@@H]2O)n1", "Efficacy", "> 90%"),
    ("CCn1nnc([C@H]2O[C@@H](n3cnc4c(NC5CC5)nc(Cl)nc43)[C@H](O)[C@@H]2O)n1", "Efficacy", "> 90%"),
]

Moving on to the next molecule.
query: For the molecule CCn1nnc([C@H]2O[C@@H](n3cnc4c(NC5CC5)ncnc43)[C@H](O)[C@@H]2O)n1 , what Efficacy is on record?
result: > 90%

Entry source: ChEMBL document CHEMBL3414438
